# credit: patent US5254541A

test: aqueous solubility; format: physicochemical; conditions: water, crystalline sodium salt
Counter-ions that a name gives are not always drawn.
parameter: solubility

If you can, please state the reported solubility value of CC(C)(C)Sc1c(CC(C)(C)C(=O)O)n(Cc2ccc(Cl)cc2)c2ccc(OCc3ccc4ccccc4n3)cc12 [L-686,708 sodium salt] . 5 to 30 µg/mL
